# reported log10 IC50; entries follow
TARGET UNDER TEST: GMPPNP-loaded H-Ras or GTP-loaded K-Ras
TEST DETAILS: FP competition, displacement of probe R4007 from Ras
*1 amine or outer side, *2 acyl side, *3 side chain or, on linkers, in order; H or OH if unused. Bridges are numbered along the chain shown (N, C = ends). Where no end group is shown, it is not given here. [ ]: non-standard residue; d: D form. Trp(7-aza) = N[C@@H](Cc1c[nH]c2ncccc12)C(=O)O; NMePhe(4-F) = CN[C@@H](Cc1ccc(F)cc1)C(=O)O; mXylylene = c1cc(C[*:1])cc(C[*:2])c1; NMeY = CN[C@@H](Cc1ccc(O)cc1)C(=O)O; NMeK = CN[C@@H](CCCCN)C(=O)O; Phg = N[C@H](C(=O)O)c1ccccc1; Tle = CC(C)(C)[C@H](N)C(=O)O; NMeS = CN[C@@H](CO)C(=O)O; NMeA = CN[C@@H](C)C(=O)O; Nva = CCC[C@H](N)C(=O)O; Sar = CNCC(=O)O
PROPERTY MEASURED: log10 IC50 (log10 of the value in nM)

BINDER	VALUE MEASURED
Ac-[Nva]CY[Tle]KH[NMeS][Phg][Trp(7-aza)]Y[NMePhe(4-F)][Sar]C-NH2 (linker 2-13 via mXylylene; SMILES CCC[C@H](NC(C)=O)C(=O)N[C@H]1CSCc2cccc(c2)CSC[C@@H](C(N)=O)NC(=O)CN(C)C(=O)[C@H](Cc2ccc(F)cc2)N(C)C(=O)[C@H](Cc2ccc(O)cc2)NC(=O)[C@H](Cc2c[nH]c3ncccc23)NC(=O)[C@H](c2ccccc2)NC(=O)[C@H](CO)N(C)C(=O)[C@H](Cc2c[nH]cn2)NC(=O)[C@H](CCCCN)NC(=O)[C@H](C(C)(C)C)NC(=O)[C@H](Cc2ccc(O)cc2)NC1=O) [R4132]	2.45
Ac-[Nva]C[NMeY][Tle]KH[NMeA][Phg][Trp(7-aza)]Y[NMePhe(4-F)][Sar]C[dS][dA]K[Cys(StBu)]VIM (linker 2-13 via mXylylene) [R4129]	2.36
Ac-[Nva]CY[Tle]KH[NMeA]A[Trp(7-aza)]Y[NMeA][Sar]CGGGCVIM (linker 2-13 via mXylylene) [R4143]	3.21
[Nva]CY[Tle]KH[NMeA][Phg][Trp(7-aza)]Y[NMePhe(4-F)][Sar]C-NH2 (linker 2-13 via mXylylene; N-terminus assumed; SMILES CCC[C@H](N)C(=O)N[C@H]1CSCc2cccc(c2)CSC[C@@H](C(N)=O)NC(=O)CN(C)C(=O)[C@H](Cc2ccc(F)cc2)N(C)C(=O)[C@H](Cc2ccc(O)cc2)NC(=O)[C@H](Cc2c[nH]c3ncccc23)NC(=O)[C@H](c2ccccc2)NC(=O)[C@H](C)N(C)C(=O)[C@H](Cc2c[nH]cn2)NC(=O)[C@H](CCCCN)NC(=O)[C@H](C(C)(C)C)NC(=O)[C@H](Cc2ccc(O)cc2)NC1=O) [R4002]	0.90
Ac-[Nva]CY[Tle]AH[NMeK][Phg][Trp(7-aza)]Y[NMePhe(4-F)][Sar]C-NH2 (linker 2-13 via mXylylene; SMILES CCC[C@H](NC(C)=O)C(=O)N[C@H]1CSCc2cccc(c2)CSC[C@@H](C(N)=O)NC(=O)CN(C)C(=O)[C@H](Cc2ccc(F)cc2)N(C)C(=O)[C@H](Cc2ccc(O)cc2)NC(=O)[C@H](Cc2c[nH]c3ncccc23)NC(=O)[C@H](c2ccccc2)NC(=O)[C@H](CCCCN)N(C)C(=O)[C@H](Cc2c[nH]cn2)NC(=O)[C@H](C)NC(=O)[C@H](C(C)(C)C)NC(=O)[C@H](Cc2ccc(O)cc2)NC1=O) [R4125]	2.04
Ac-[Nva]CY[Tle]KH[NMeA][Phg][Trp(7-aza)]Y[NMePhe(4-F)][Sar]CGGGCVIM (linker 2-13 via mXylylene) [R4131]	2.44
